System: HeLa Kyoto
Assay: solubility in G1/S (NP-40 vs SDS abundance) (log2 ratio); higher = more soluble
Settings: cell cycle stage: G1/S
# Lookup of reported solubility in G1/S (log2) keyed by entry
// return a plain number; no unit text

>  <Sequence String>
MAKTYDYLFKLLLIGDSGVGKTCLLFRFSEDAFNTTFISTIGIDFKIRTIELDGKKIKLQIWDTAGQERFRTITTAYYRGAMGIMLVYDITNEKSFDNIKNWIRNIEEHASSDVERMILGNKCDMNDKRQVSKERGEKLAIDYGIKFLETSAKSSANVEEAFFTLARDIMTKLNRKMNDSNSAGAGGPVKITENRSKKTSFFRCSLL [RAB8B]

>  <Number>
-0.16

$$$$

Then this sequence:
Reported solubility in G1/S (log2) for MLYLIGLGLGDAKDITVKGLEVVRRCSRVYLEAYTSVLTVGKEALEEFYGRKLVVADREEVEQEADNILKDADISDVAFLVVGDPFGATTHSDLVLRATKLGIPYRVIHNASIMNAVGCCGLQLYKFGETVSIVFWTDTWRPESFFDKVKKNRQNGMHTLCLLDIKVKEQSLENLIKGRKIYEPPRYMSVNQAAQQLLEIVQNQRIRGEEPAVTEETLCVGLARVGADDQKIAAGTLRQMCTVDLGEPLHSLIITGGSIHPMEMEMLSLFSIPENSSESQSINGL [DPH5] was 0.11

* * *

Tested on: HeLa Kyoto
Assay: melting temperature (median over replicates), in situ; higher = more thermally stable
Details: cell cycle stage: mitosis
Each entry below lists one item and its recorded melting temperature value.

>  <Sequence String>
MVKLAAKCILAGDPAVGKTALAQIFRSDGAHFQKSYTLTTGMDLVVKTVPVPDTGDSVELFIFDSAGKELFSEMLDKLWESPNVLCLVYDVTNEESFNNCSKWLEKARSQAPGISLPGVLVGNKTDLAGRRAVDSAEARAWALGQGLECFETSVKEMENFEAPFHCLAKQFHQLYREKVEVFRALA [IFT27]

>  <Subject Of Test>
HeLa Kyoto

>  <melting temperature>
53.7 °C

$$$$

The sequence MTAPCPPPPPDPQFVLRGTQSPVHALHFCEGAQAQGRPLLFSGSQSGLVHIWSLQTRRAVTTLDGHGGQCVTWLQTLPQGRQLLSQGRDLKLCLWDLAEGRSAVVDSVCLESVGFCRSSILAGGQPRWTLAVPGRGSDEVQILEMPSKTSVCALKPKADAKLGMPMCLRLWQADCSSRPLLLAGYEDGSVVLWDVSEQKVCSRIACHEEPVMDLDFDSQKARGISGSAGKALAVWSLDWQQALQVRGTHELTNPGIAEVTIRPDRKILATAGWDHRIRVFHWRTMQPLAVLAFHSAAVQCVAFTADGLLAAGSKDQRISLWSLYPRA [GNB1L] , when measured on HeLa Kyoto, yielded melting temperature of 54.2 °C

* * *

Each record here notes measured solubility in G1/S (log2).
Tested on: HeLa Kyoto
Assay: solubility in G1/S (NP-40 vs SDS abundance) (log2 ratio); higher = more soluble
Conditions: cell cycle stage: G1/S
Kindly provide the number alone.

// known answers, use as guide
>  <Sequence String>
MERPDKAALNALQPPEFRNESSLASTLKTLLFFTALMITVPIGLYFTTKSYIFEGALGMSNRDSYFYAAIVAVVAVHVVLALFVYVAWNEGSRQWREGKQD [VMA21]

>  <solubility in G1/S (log2)>
-0.135

$$$$
>  <Sequence String>
MLSLRVPLAPITDPQQLQLSPLKGLSLVDKENTPPALSGTRVLASKTARRIFQEPTEPKTKAAAPGVEDEPLLRENPRRFVIFPIEYHDIWQMYKKAEASFWTAEEVDLSKDIQHWESLKPEERYFISHVLAFFAASDGIVNENLVERFSQEVQITEARCFYGFQIAMENIHSEMYSLLIDTYIKDPKEREFLFNAIETMPCVKKKADWALRWIGDKEATYGERVVAFAAVEGIFFSGSFASIFWLKKRGLMPGLTFSNELISRDEGLHCDFACLMFKHLVHKPSEERVREIIINAVRIEQEFLTEALPVKLIGMNCTLMKQYIEFVADRLMLELGFSKVFRVENPFDFMENISLEGKTNFFEKRVGEYQRMGVMSSPTENSFTLDADF [RRM2]

>  <solubility in G1/S (log2)>
-0.239

$$$$

// recorded solubility in G1/S (log2) for MTQPVPRLSVPAALALGSAALGAAFATGLFLGRRCPPWRGRREQCLLPPEDSRLWQYLLSRSMREHPALRSLRLLTLEQPQGDSMMTCEQAQLLANLARLIQAKKALDLGTFTGYSALALALALPADGRVVTCEVDAQPPELGRPLWRQAEAEHKIDLRLKPALETLDELLAAGEAGTFDVAVVDADKENCSAYYERCLQLLRPGGILAVLRVLWRGKVLQPPKGDVAAECVRNLNERIRRDVRVYISLLPLGDGLTLAFKI [COMTD1] : 0.16

Lab note: measured solubility in G1/S (log2) of MATLIYVDKENGEPGTRVVAKDGLKLGSGPSIKALDGRSQVSTPRFGKTFDAPPALPKATRKALGTVNRATEKSVKTKGPLKQKQPSFSAKKMTEKTVKAKSSVPASDDAYPEIEKFFPFNPLDFESFDLPEEHQIAHLPLSGVPLMILDEERELEKLFQLGPPSPVKMPSPPWESNLLQSPSSILSTLDVELPPVCCDIDI [PTTG1] was 0.176

// MLPGVGVFGTSLTARVIIPLLKDEGFAVKALWGRTQEEAEELAKEMSVPFYTSRIDEVLLHQDVDLVCINLPPPLTRQIAVKTLGIGKNVICDRTATPLDAFRMTSAAHYYPKLMSIMGNVLRFLPAFVRMKQLIEEGYVGEPLVCEVQVHGGSLLGKKYNWSCDDLMGGGGLHSVGTYIIDLLTFLTGQKAVKVHGLLKTFVKQTDHIKGIRQITSDDFCTFQMVLEGGVCCTVTLNFNVPGEFKQDVTVVGSAGRLLAVGTDLYGQRNSAPEQELLVQDATPVSNSLLPEKAFSDIPSPYLRGTIKMMQAVRQAFQDQDDRRTWDGRPLTMAATFDDCLYALCVVDTIKRSSQTGEWQNIAIMTEEPELSPAYLISEAMRRSRMSLYC [GFOD1] : solubility in G1/S (log2) value = -0.0575
